# procedure.details: NCI Yeast Anticancer Drug Screen. Data for the mlh1 rad18 strain (AID 175)
# experimental.parameters: S. cerevisiae mlh1 rad18 strain growth inhibition; at 50.0 µM; stronger effect = higher value
# Experimental: Growth inhibition of yeast strains with defined genetic alterations is measured as a screen for potential anti-cancer activity. Selected strains with alterations in DNA damage repair or cell cycle control were exposed to compounds and growth inhibition was measured relative to vehicle treated controls. The strain used in this assay is mlh1 rad18
The panel holds about 79,000 compounds, 15% with a hit somewhere; the sample as a whole holds those more often.
readout.type: growth inhibition (%)
Provide the reading as a plain figure in %.

Some compounds with known growth inhibition results, for comparison:
compound	value.units	growth inhibition
N#CC1OC1c1ccccn1 (stereo not given)	%	-21.6
CN1CCCNCCN(CCc2ccccn2)CCCN(C)CC1	%	6.65
N=c1c2ncn(C3OC(COP(=O)(O)O)C(O)C3O)c2ncn1O (stereo not given)	%	1.15
Nc1nc(-c2ccco2)cc(-c2ccc(CO)o2)n1	%	3.9
Cc1cccc(NN)c1	%	32.9

Short answer for NC1=C(O)C(=O)C(c2ccc(C3OC(N)=C(O)C3=O)cc2)O1 (stereo not given) : growth inhibition was -3.5

Query COC(=O)c1cc(C(=O)OC)c(C/C(=N/NC(=O)C[N+](C)(C)C)C(=O)Nc2cccc(C(F)(F)F)c2)nc1C/C(=N/NC(=O)C[N+](C)(C)C)C(=O)Nc1cccc(C(F)(F)F)c1 yields growth inhibition of -2.3

Entry under test: COc1ccc(/C=C/C(=O)c2cc(C(=O)O)c(OC)cc2OC)cc1OC . Its growth inhibition was -20.8

growth inhibition measured on Cn1c2c(F)cccc2c(=O)c2c(O)cc3c(c21)C=CC(C)(C)O3 = -19.7

Value of growth inhibition reported for the compound C/C(=N\NS(=O)(=O)c1ccccc1)c1ccc(Cl)c(Cl)c1 is -38.5

compound Cc1cc(C)c(CN(C)C)c(CC(O)c2ccccc2)c1 (stereo not given) , growth inhibition observed: -1.95

Lookup result for CC(CO)(NC(=O)c1ccccc1)C(=O)O (stereo not given) ; measured growth inhibition: 23.4

Looking up CC1CCN(C(=O)C(c2ccccc2)c2ccccc2)CC1 , I found its growth inhibition recorded as -4.75

Looking up COc1ccccc1-c1cc(=O)c2cc(C)c(C)c(C(=O)O)c2o1 , I found its growth inhibition recorded as 11.8

The measured growth inhibition associated with COc1nc2cc(C)c(C)cc2n1C1OC(CO)C(O)C1O (stereo not given) reads -7

###

# procedure.details: NCI Yeast Anticancer Drug Screen. Data for the mec2-1 strain (AID 157)
# experimental.parameters: S. cerevisiae mec2-1 strain, at 50.0 µM, stronger effect = higher value
Compounds without any hit were thinned out: in the full panel of roughly 79,000, 15% have a hit.
readout.type: growth inhibition (%)
Provide only the numeric value, understood in %.

These solved cases illustrate the format of a correct answer.
molecule	value.units	growth inhibition
C1=C2CCc3ccc(o3)CCC(=C1)O2	%	14.8
COc1ccc(N(Cc2ccccc2)c2nn[nH]n2)cc1	%	-18.4

// growth inhibition value for Cc1ccc(NC(=O)CCC(CC(=O)C(C)(C)C)=NNC(=O)C(=O)NN)cc1C : -19.3

Just so you know, measured growth inhibition for CCOC(=O)C(C#N)C(=O)c1ccccc1-c1ccccc1[N+](=O)[O-] (configuration not stated) came out at 1.1

Record summary for COc1ccc2nc3c(=O)[nH]c(=O)nc-3n(CC(O)C(O)C(O)CO)c2c1 (configuration not stated) : reported growth inhibition = 6.9

Query CCOC(OCC)C(N)=O yields growth inhibition of -12.1

# molecule CC1C=CC(C)c2c(-c3ccccc3)oc(-c3ccccc3)c21 (configuration not stated) ; its growth inhibition = 8.6

growth inhibition reported for this molecule CCOC(=O)C(NCc1cccc(C(F)(F)F)c1)(NC(=O)c1ccccc1)C(F)(F)F (configuration not stated) : -0.95

The value of growth inhibition measured for the molecule CCOC(=O)c1nnsc1NN turned out to be -7.45

The recorded growth inhibition for entry O=C1OC2C(O)COC2(O)C1(O)Cc1c[nH]c2ccccc12 (configuration not stated) equals -6.4

Note to self: growth inhibition recorded for CCCCCCC(=O)NC(O)C(Cl)(Cl)C(C)Cl (configuration not stated) was -6.6

Lookup result for C/C=C\C=C\C(=O)O ; measured growth inhibition: -17
